# MEASURED_TARGET: UniProt P17706
# Sequence (P17706 with tags, fused parts or gaps isoform P17706-2): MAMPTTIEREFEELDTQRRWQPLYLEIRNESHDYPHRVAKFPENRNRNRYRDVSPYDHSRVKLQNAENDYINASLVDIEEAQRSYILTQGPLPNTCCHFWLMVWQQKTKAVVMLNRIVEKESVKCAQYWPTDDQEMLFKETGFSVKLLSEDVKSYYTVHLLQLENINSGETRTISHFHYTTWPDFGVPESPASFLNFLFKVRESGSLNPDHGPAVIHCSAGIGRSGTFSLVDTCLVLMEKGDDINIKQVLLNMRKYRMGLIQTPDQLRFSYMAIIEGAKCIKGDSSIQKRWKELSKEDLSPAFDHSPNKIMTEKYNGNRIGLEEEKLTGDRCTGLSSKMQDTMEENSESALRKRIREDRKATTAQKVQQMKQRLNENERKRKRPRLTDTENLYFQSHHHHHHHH
Entries and their IC50
MEASURED_ENDPOINT: IC50

INSERT INTO measurements (molecule, measured_value) VALUES
  ('O=C1CN(c2c(O)cc3c(c2F)CC(CNCCO)CC3)S(=O)(=O)N1 (stereo not shown) [Compound 403]', '10 to 100 nM'),
  ('NCCCN1CCc2cc(O)c(N3CC(=O)NS3(=O)=O)c(F)c2C1 [Compound 218]', '> 100 nM'),
  ('CC(C)CCS(=O)(=O)NC1CCc2cc(O)c(N3CC(=O)NS3(=O)=O)c(F)c2C1 (stereo not shown) [Compound 332]', '10 to 100 nM'),
  ('Cn1ccc(CN[C@@H]2CCc3cc(O)c(N4CC(=O)NS4(=O)=O)c(F)c3C2)c1 [Compound 346]', '1 to 10 nM'),
  ('Cn1nccc1CNC(=O)N1CCc2cc(O)c(N3CC(=O)NS3(=O)=O)c(F)c2C1 [Compound 272]', '10 to 100 nM'),
  ('Cc1nn(CC(F)F)c(C)c1CCN1Cc2c(cc(O)c(N3CC(=O)NS3(=O)=O)c2F)C(F)(F)C1 [Compound 226]', '10 to 100 nM'),
  ('C[C@@H]1C[C@@H](N)Cc2c1cc(O)c(N1CC(=O)NS1(=O)=O)c2F [Compound 397]', '> 100 nM'),
  ('O=C1CN(c2c(O)cc3c(c2F)CN(CC[C@H]2C[C@@H](OC(F)(F)F)C2)CC3)S(=O)(=O)N1 [Compound 231]', '10 to 100 nM'),
  ('CC(O)CCN[C@@H]1CCc2cc(O)c(N3CC(=O)NS3(=O)=O)c(F)c2C1 (stereo partly shown) [Compound 369]', '1 to 10 nM'),
  ('C[C@H]1C[C@@H](N)Cc2c1cc(O)c(N1CC(=O)NS1(=O)=O)c2F [Compound 398]', '10 to 100 nM'),
  ('CC(C)CNS(=O)(=O)N1CCc2cc(O)c(N3CC(=O)NS3(=O)=O)c(F)c2C1 [Compound 328]', '10 to 100 nM'),
  ('O=C1CN(c2c(O)cc3c(c2F)CN(CCc2cncnc2)CC3)S(=O)(=O)N1 [Compound 210]', '> 100 nM'),
  ('CCCCC(=N)N1CCc2cc(O)c(N3CC(=O)NS3(=O)=O)c(F)c2C1 [Compound 158]', '10 to 100 nM'),
  ('O=C1CN(c2c(O)cc3c(c2F)CN(C(=O)NCCC2CC2)CC3)S(=O)(=O)N1 [Compound 264]', '10 to 100 nM'),
  ('CN(C)CCCNC(=O)N1CCc2cc(O)c(N3CC(=O)NS3(=O)=O)c(F)c2C1 [Compound 285]', '10 to 100 nM'),
  ('O=C1CN(c2c(O)cc3c(c2F)CN(C(=O)NCC2CC(F)(F)C2)CC3)S(=O)(=O)N1 [Compound 262]', '10 to 100 nM');
